# assayed-target: Delta-type opioid receptor (Homo sapiens) (UniProt P41143)
# Sequence (P41143 whole entry): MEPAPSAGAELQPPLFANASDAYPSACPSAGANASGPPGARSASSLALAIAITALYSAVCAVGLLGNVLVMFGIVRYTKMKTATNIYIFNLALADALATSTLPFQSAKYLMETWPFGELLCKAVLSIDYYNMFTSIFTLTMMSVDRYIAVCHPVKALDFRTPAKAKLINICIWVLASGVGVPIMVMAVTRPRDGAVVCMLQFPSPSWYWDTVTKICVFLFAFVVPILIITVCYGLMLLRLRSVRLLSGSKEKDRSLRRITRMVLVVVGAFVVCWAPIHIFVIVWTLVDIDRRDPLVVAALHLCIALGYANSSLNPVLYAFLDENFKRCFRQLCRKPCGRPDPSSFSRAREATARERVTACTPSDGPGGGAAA
# measurement-notes: Agonist activity at FLAG-tagged delta opioid receptor expressed in HEK293 cells assessed as receptor down regulation at 10 uM by Bradford assay relative to control
# Assay type: functional, cell-based
Consider the cut-off 20%. If the recorded Activity is strictly smaller, the label is Satisfied; if not, the label is Not satisfied.

{"structure": "Cc1ccc(-c2nc(CN(C)C)nn2-c2cccc(O)c2)c(C)c1", "category": "Not satisfied"}
{"structure": "CN(C)Cc1nc(-c2ccc(C(C)(C)C)cc2)n(-c2cccc(O)c2)n1", "category": "Satisfied"}
{"structure": "CN(C)Cc1nc(-c2cccc(C(C)(C)C)c2)n(-c2cccc(O)c2)n1", "category": "Not satisfied"}
{"structure": "CN(C)Cc1nc(-c2cccc(O)c2)n(-c2ccc(C(C)(C)C)cc2)n1", "category": "Satisfied"}

Query block: I'd appreciate it if you could check whether `C=CCN1C[C@H](C)N([C@H](c2ccc(C(=O)N(CC)CC)cc2)c2cccc(OC)c2)C[C@H]1C` has Activity smaller than 20%.
Result block: Satisfied
